assayTarget: T1, recombinant human c-Met extracellular domain (R&D systems) (human, UniProt P08581 25-932)
T1 construct: extracellular domain; Bought reagent; also called coated extracellular domain of c-Met; recombinant c-Met
protocolDetails: competition ELISA on coated recombinant c-Met extracellular domain; blocked ligand Europium-conjugated HGF; column headed EC50 on the sheet, called IC50 in paragraph 270; upper panel
Lab note: compare IC50 with 0.009 µg/mL, writing t if less and f if equal or more.

>>> answerlabel("IgG1-1016-022 (antibody, V domains shown, also called TH1016-022; PC1016-022) VH: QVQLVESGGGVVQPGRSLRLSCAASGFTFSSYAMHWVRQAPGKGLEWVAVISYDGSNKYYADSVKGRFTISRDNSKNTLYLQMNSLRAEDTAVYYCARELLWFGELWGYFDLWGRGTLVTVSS VL: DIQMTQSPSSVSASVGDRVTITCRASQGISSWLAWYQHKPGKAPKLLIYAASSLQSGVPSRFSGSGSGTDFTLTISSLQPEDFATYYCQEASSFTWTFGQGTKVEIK")
"f"
>>> answerlabel("anti-c-Met HuMab 006 (IgG1) (antibody, V domains shown, also called TH1016-006; PC1016-006) VH: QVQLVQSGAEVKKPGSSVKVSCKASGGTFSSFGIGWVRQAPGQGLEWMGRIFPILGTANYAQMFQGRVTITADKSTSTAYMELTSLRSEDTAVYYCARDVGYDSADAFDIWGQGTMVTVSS VL: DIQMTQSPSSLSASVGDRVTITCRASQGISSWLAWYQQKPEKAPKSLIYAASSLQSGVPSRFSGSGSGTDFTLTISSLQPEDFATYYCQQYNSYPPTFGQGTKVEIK")
"f"
>>> answerlabel("IgG1-024 (antibody, V domains shown, also called TH1016-024; PC1016-024) VH: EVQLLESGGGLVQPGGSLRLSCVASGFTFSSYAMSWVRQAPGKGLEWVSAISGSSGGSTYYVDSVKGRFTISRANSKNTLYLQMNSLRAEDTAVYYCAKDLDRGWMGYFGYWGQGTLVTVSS VL: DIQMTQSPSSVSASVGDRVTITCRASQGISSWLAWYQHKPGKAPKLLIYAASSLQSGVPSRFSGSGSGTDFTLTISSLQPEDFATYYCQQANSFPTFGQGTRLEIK")
"f"
>>> answerlabel("IgG1-1016-058 (antibody, V domains shown, also called IgG1-058; TH1016-058) VH: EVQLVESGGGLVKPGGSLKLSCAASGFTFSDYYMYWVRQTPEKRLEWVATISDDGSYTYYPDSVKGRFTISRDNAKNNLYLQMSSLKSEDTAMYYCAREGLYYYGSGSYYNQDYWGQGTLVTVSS VL: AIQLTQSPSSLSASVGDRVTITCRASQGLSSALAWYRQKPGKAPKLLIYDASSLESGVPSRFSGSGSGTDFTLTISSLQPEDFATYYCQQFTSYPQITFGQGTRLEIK")
"t"
>>> answerlabel("anti-c-Met HuMab 045 (IgG1) (antibody, V domains shown, also called TH1016-045; PC1016-045) VH: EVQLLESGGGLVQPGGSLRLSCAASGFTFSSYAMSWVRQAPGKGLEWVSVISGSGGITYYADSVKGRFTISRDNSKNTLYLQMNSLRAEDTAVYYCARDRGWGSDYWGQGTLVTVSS VL: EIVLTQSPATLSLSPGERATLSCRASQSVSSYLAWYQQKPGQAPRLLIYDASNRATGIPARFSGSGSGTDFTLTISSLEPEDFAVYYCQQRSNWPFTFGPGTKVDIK")
"f"
